# Test system: NCI-H1563
# experiment-description: cells
# Type: functional, cell-based, Homo sapiens
# condition-description: Homo sapiens, NCI-H1563
# Description: SANGER: Inhibition of human NCI-H1563 cell growth in a cell viability assay.
pIC50: −log10 of the molar value.
measure-name: pIC50

A selection of reference data follows.
compound: CCN(CC)CCCCNc1ncc2cc(-c3cc(OC)cc(OC)c3)c(NC(=O)NC(C)(C)C)nc2n1
target-entity: NCI-H1563
observed-result: < 5.70

compound: CC1(C)CNc2cc(NC(=O)c3cccnc3NCc3ccncc3)ccc21
target-entity: NCI-H1563
observed-result: < 5.70

compound: CO[C@H]1C[C@@H]2CC[C@@H](C)[C@@](O)(O2)C(=O)C(=O)N2CCCC[C@H]2C(=O)O[C@H]([C@H](C)C[C@@H]2CC[C@@H](OC(=O)C(C)(CO)CO)[C@H](OC)C2)CC(=O)[C@H](C)/C=C(\C)[C@@H](O)[C@@H](OC)C(=O)[C@H](C)C[C@H](C)/C=C/C=C/C=C/1C
target-entity: NCI-H1563
observed-result: 6.98

compound: CS(=O)(=O)c1ccc(C(=O)Nc2ccc(Cl)c(-c3ccccn3)c2)c(Cl)c1
target-entity: NCI-H1563
observed-result: < 5.00

compound: COc1cc2c(Nc3ccc(NC(=O)c4ccccc4)cc3)ncnc2cc1OCCCN1CCOCC1
target-entity: NCI-H1563;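 further: growth inhibition of human NCI-H1563 cells, read out with a cell viability assay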
observed-result: < 5.40

Please fill in: pIC50 reported for N#Cc1c(O)c2c(-c3ccc(-c4ccccc4O)cc3)csc2[nH]c1=O = < 5.99

// sample Nc1cccc2c1CN(C1CCC(=O)NC1=O)C2=O (centres undefined) [LENALIDOMIDE] , its pIC50 was < 5.30

Documented pIC50 of C=C(c1ccc(C(=O)O)cc1)c1cc2c(cc1C)C(C)(C)CCC2(C)C : < 5.10

In plain terms, Cc1cc([N+](=O)[O-])ccc1NS(=O)(=O)c1cc(Cl)ccc1Cl has a documented pIC50 of 5.02

* * *

# System: MOLT-16
# experiment-description: cells
# Type: functional, cell-based, Homo sapiens
# condition-description: molt-16
# Description: SANGER: Inhibition of human MOLT-16 cell growth in a cell viability assay.
measure-name: pIC50
Convention used: pIC50 is expressed as -log10 of the molar concentration.

CISPLATIN has a reported pIC50 of 5.08

BLEOMYCIN has a reported pIC50 of 4.53

* * *

Reported values of pIC50 for individual entries
# Tested on: TE-10;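 further: growth inhibition of TE-10 cells, measured by a cell viability assay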
# experiment-description: cells
# Assay type: functional, cell-based, Homo sapiens
# condition-description: Homo sapiens, TE-10
# Description: SANGER: Inhibition of human TE-10 cell growth in a cell viability assay.
Scale: pIC50 equals -log10([C]), with [C] in mol/L.

Consider the worked cases shown below.
query-smiles: CCN(CC)CCNC(=O)c1c(C)[nH]c(/C=C2\C(=O)Nc3ccc(F)cc32)c1C
measure-name: pIC50
observed-result: 5.63
--
query-smiles: CC(=O)O[C@H]1C(=O)[C@@]2(C)[C@H]([C@H](OC(=O)c3ccccc3)[C@]3(O)C[C@H](OC(=O)[C@H](O)[C@@H](NC(=O)c4ccccc4)c4ccccc4)C(C)=C1C3(C)C)[C@]1(OC(C)=O)CO[C@@H]1C[C@@H]2O
measure-name: pIC50
observed-result: 8.81
--
query-smiles: COc1cc(-c2nn([C@H]3CC[C@H](N4CCN(C(C)=O)CC4)CC3)c3ncnc(N)c23)ccc1NC(=O)c1cc2ccccc2n1C
measure-name: pIC50
observed-result: 5.63

Documented pIC50 of Nc1ccn([C@@H]2O[C@H](CO)[C@@H](O)C2(F)F)c(=O)n1 : 7.79

Entry O=C(O)c1ccc(-c2c[nH]c3ncc(-c4ccccc4)cc23)cc1C1CCCC1 , pIC50 reported as 4.84

* * *

# Test system: RCC10RGB;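 further: growth inhibition of human RCC10RGB cells, read out by a cell viability assay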
# experiment-description: cells
# Assay type: functional, cell-based, Homo sapiens
# condition-description: Homo sapiens, RCC10RGB
# Description: SANGER: Inhibition of human RCC10RGB cell growth in a cell viability assay.
pIC50: −log10 of the molar value. Structures can show the parent of a compound that is named as a salt.
Quick reference for pIC50 among some compounds

Worked examples, 5 compounds total:
compound: COC1=CC(c2cc3ccccc3[nH]2)=N/C1=C\c1[nH]c(C)cc1C [OBATOCLAX MESYLATE]
pIC50: 5.94
//
compound: Cc1ccc(-c2c(C(=O)CCl)n(CCCO)c3ncnc(N)c23)cc1
pIC50: < 5.40
//
compound: COc1cc(N2CCN(C)CC2)ccc1Nc1ncc2c(n1)N(C)c1ccccc1C(=O)N2C
pIC50: < 5.10
//
compound: Oc1ccc2ccccc2c1SSc1c(O)ccc2ccccc12
pIC50: < 4.49
//
compound: N[C@@H](CSC(c1ccccc1)(c1ccccc1)c1ccccc1)C(=O)O [S-TRITYL-L-CYSTEINE]
pIC50: < 5.29

Lookup result for CCN(CC)CCCCNc1ncc2cc(-c3cc(OC)cc(OC)c3)c(NC(=O)NC(C)(C)C)nc2n1 [PD-173074] ; measured pIC50: < 5.70

The compound listed as CC(C)CCN1c2nc(Nc3cc(F)c(O)c(F)c3)ncc2N(C)C(=O)C1C (stereo not given) has a reported pIC50 of < 5.30

Reported pIC50 of CC[C@H](CO)Nc1nc(NCc2ccccc2)c2ncn(C(C)C)c2n1 [SELICICLIB] : < 4.80

For COc1cc2ncn(-c3cc(OCc4ccccc4S(C)(=O)=O)c(C#N)s3)c2cc1OC [GSK-319347A] the compound record lists pIC50 as < 5.30

Item: O=C(O)c1ccc(-c2c[nH]c3ncc(-c4ccccc4)cc23)cc1C1CCCC1 [GSK-650394] | pIC50: < 4.80

* * *

Measured pIC50, listed per entry.
# System: NCI-H1666
# experiment-description: cells
# Type: functional, cell-based, Homo sapiens
# condition-description: Homo sapiens, NCI-H1666
# Description: SANGER: Inhibition of human NCI-H1666 cell growth in a cell viability assay.
pIC50: −log10 of the molar value.

Look over these answered cases.
query-smiles: CC(C)c1ccccc1Cc1cc(C(=O)Nc2ccc(S(=O)(=O)c3ccccc3C(C)(C)C)cc2)c(O)c(O)c1O
pIC50: 6.42
//
query-smiles: CS(=O)(=O)c1ccc(C(=O)Nc2ccc(Cl)c(-c3ccccn3)c2)c(Cl)c1
pIC50: < 5.00
//
query-smiles: CCN(CC)CCCCNc1ncc2cc(-c3cc(OC)cc(OC)c3)c(NC(=O)NC(C)(C)C)nc2n1
pIC50: < 5.70
//
query-smiles: COc1cc2c(Nc3ccc(NC(=O)c4ccccc4)cc3)ncnc2cc1OCCCN1CCOCC1
pIC50: < 5.40

Briefly, pIC50 measured for CO[C@H]1C[C@@H]2CC[C@@H](C)[C@@](O)(O2)C(=O)C(=O)N2CCCC[C@H]2C(=O)O[C@H]([C@H](C)C[C@@H]2CC[C@@H](OC(=O)C(C)(CO)CO)[C@H](OC)C2)CC(=O)[C@H](C)/C=C(\C)[C@@H](O)[C@@H](OC)C(=O)[C@H](C)C[C@H](C)/C=C/C=C/C=C/1C : < 6.70

* * *

# Tested on: AM-38
# experiment-description: cells
# Assay type: functional, cell-based, Homo sapiens
# condition-description: am-38
# Description: SANGER: Inhibition of human AM-38 cell growth in a cell viability assay.
measure-name: pIC50
Please keep in mind that pIC50 is minus log10 of the molar concentration; only the number is needed.

Value of measured pIC50 for the entry BLEOMYCIN : 5.31

* * *

# Tested on: MFE-280;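 further: growth inhibition of MFE-280 cells, determined with a cell viability readout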
# experiment-description: cells
# Assay type: functional, cell-based, Homo sapiens
# condition-description: Homo sapiens, MFE-280
# Description: SANGER: Inhibition of human MFE-280 cell growth in a cell viability assay.
measure-name: IC50

Quick note, IC50 for Cc1cc([N+](=O)[O-])ccc1NS(=O)(=O)c1cc(Cl)ccc1Cl landed at 2770 nM

Query Nc1ccn([C@@H]2O[C@H](CO)[C@@H](O)C2(F)F)c(=O)n1 yields IC50 of > 1020 nM

Entry CO[C@H]1C[C@@H]2CC[C@@H](C)[C@@](O)(O2)C(=O)C(=O)N2CCCC[C@H]2C(=O)O[C@H]([C@H](C)C[C@@H]2CC[C@@H](OC(=O)C(C)(CO)CO)[C@H](OC)C2)CC(=O)[C@H](C)/C=C(\C)[C@@H](O)[C@@H](OC)C(=O)[C@H](C)C[C@H](C)/C=C/C=C/C=C/1C , IC50 reported as > 200 nM

* * *

Form field: IC50 (one value per entry).
# System: NCI-H727
# experiment-description: cells
# Assay type: functional, cell-based, Homo sapiens
# condition-description: Homo sapiens, NCI-H727
# Description: SANGER: Inhibition of human NCI-H727 cell growth in a cell viability assay.

Examples from the recorded data:
compound: CC(C)CCN1c2nc(Nc3cc(F)c(O)c(F)c3)ncc2N(C)C(=O)C1C (centres undefined)
IC50: > 5 µM
--
compound: Nc1cccc2c1CN(C1CCC(=O)NC1=O)C2=O (centres undefined) [LENALIDOMIDE]
IC50: > 5 µM
--
compound: Oc1ccc2ccccc2c1SSc1c(O)ccc2ccccc12
IC50: 19.7 µM

For the next question, use this compound.
// field: IC50; key: Nc1ccn([C@@H]2O[C@H](CO)[C@@H](O)C2(F)F)c(=O)n1 ; value = 0.00251 µM
